Below, each of the molecules is paired with its reported AC50 value.
Target: PKR T384W (Homo sapiens, UniProt P30613, T384W)
Sequence (P30613 whole entry T384W): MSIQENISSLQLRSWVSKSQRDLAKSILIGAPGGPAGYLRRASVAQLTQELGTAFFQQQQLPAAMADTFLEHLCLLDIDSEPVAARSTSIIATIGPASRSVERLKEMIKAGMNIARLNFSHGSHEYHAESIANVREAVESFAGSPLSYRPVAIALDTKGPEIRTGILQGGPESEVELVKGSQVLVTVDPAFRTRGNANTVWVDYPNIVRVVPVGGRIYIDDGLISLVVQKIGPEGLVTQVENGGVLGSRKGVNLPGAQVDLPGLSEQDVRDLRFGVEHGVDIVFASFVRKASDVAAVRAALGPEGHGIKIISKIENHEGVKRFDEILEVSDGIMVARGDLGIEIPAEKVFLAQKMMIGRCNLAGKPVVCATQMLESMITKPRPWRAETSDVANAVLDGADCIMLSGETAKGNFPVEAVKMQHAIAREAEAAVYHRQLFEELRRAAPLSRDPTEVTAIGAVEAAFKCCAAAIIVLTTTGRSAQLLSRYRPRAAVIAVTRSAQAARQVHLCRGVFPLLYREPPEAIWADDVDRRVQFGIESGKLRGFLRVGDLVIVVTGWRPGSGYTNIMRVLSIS
Assay: PKR Mutant Assay (AC50), PKR T384W
Type: biochemical
Method: • PKR or PKR mutant enzyme solution was diluted in assay buffer. 2 μL of test compound was added into wells first, and then 180 μL reaction mix was added. • Reactions mixture with test compound was assembled except for ADP, and plates were stored for 60 minutes at room temperature. • 20 uL ADP was added to start reaction at room temperature and reaction progress was measured as changes in absorbance at 340 nm wavelength at room temperature. […]

Worked set:
molecule=CSc1cc2c(s1)c1cnn(Cc3cccc(O)c3)c(=O)c1n2C value_reported="< 100 nM"
molecule="COc1cccc(Cn2ncc3c4sc([S+](C)[O-])cc4n(C)c3c2=O)c1 (stereo not shown)" value_reported="< 100 nM"
molecule="Cn1c2cc([S+](C)[O-])sc2c2cnn(Cc3ccccc3F)c(=O)c21 (stereo not shown)" value_reported="> 500 nM"

Hello, I am looking for reported AC50 with PKR T384W (Homo sapiens, UniProt P30613, T384W) for Cn1c2cc([S+](C)[O-])sc2c2cnn(Cc3cccc(O)c3)c(=O)c21 (stereo not shown) . Could you help?
< 100 nM
